# study_target: HPPD variant AVESA V358 (SEQ ID NO: 56) (Avena sativa, UniProt A0ACD5V6K6, A327R/I340E/L359M/P271N/R214G/S304T/V218I/V260A)
# experiment_summary: biochemical
# Type: biochemical
test_readout: pIC50
Entry type: numeric. Quantity: pIC50, the -log10 of concentration in molar units.

Input line: Given the molecule Cn1nnnc1NC(=O)c1ccc(C(F)(F)F)nc1-n1cncn1 [Herbicide D] , what is its reported pIC50?
Output line: 3.75

###

# Test system: HPPD variant APESV V162 (SEQ ID NO: 123)
# experiment_summary: coupled HGO assay
# Assay type: biochemical, Apera spica-venti
test_readout: pIC50
Entry type: numeric. Quantity: pIC50, the -log10 of concentration in molar units.

compound	pIC50
COc1ccc(-n2nc(C)cc(C(=O)C3C(=O)CCCC3=O)c2=O)cc1OC [Herbicide C, dioxopyritrione]	6.59

Read the next record carefully.
Input line: Hello, I am looking for reported pIC50 with HPPD variant APESV V162 (SEQ ID NO: 123) for Cn1nnnc1NC(=O)c1ccc(C(F)(F)F)nc1-n1cncn1 [Herbicide D] . Could you help?
Output line: 4.95
